target: recombinant soluble homotrimeric HA of A/northern shoveler/California/HKWF115/07 (H6) (Influenza A virus A/northern shoveler/California/HKWF115/2007(H6N1)); assay: HA microarray, BCC supernatant; conditions: remark: other sources report otherwise
READOUT NAME: Trimeric HA Binding: RLU (RLU)
Answer format: numeric, RLU implied, no suffix.

Examples with answers:
- BINDER: "TCN-534 (5249_B02) (antibody, V domains shown) VH: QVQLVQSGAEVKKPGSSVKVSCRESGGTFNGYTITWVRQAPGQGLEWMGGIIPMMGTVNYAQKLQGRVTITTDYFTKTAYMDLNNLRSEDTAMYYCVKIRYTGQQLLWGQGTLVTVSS VL: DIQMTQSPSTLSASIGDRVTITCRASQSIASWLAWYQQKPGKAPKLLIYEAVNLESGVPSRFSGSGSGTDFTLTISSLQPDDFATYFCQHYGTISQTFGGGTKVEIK"
  OBSERVED: 52400
- BINDER: "TCN-538 (3206_O17) (antibody, V domains shown) VH: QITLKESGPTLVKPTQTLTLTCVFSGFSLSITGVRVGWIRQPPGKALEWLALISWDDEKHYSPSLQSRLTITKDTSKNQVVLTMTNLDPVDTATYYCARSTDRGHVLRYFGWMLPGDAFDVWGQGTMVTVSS VL: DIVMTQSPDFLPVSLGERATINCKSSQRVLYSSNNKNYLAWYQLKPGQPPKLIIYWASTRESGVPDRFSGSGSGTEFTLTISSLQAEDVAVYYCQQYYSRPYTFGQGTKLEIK"
  OBSERVED: 17400

Asked: Can you share its Trimeric HA Binding: RLU? I mean this binder: TCN-536 (5095_N01) (antibody, V domains shown) VH: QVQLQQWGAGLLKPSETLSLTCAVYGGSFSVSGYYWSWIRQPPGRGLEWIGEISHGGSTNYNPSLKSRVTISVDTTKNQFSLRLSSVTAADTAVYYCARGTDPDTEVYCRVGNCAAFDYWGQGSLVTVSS VL: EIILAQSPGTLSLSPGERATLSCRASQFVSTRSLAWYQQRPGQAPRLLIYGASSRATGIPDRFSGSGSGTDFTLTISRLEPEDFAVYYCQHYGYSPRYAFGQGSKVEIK
Given back: 2210

This collection of values is drawn from patent US20150086555A1.
